The reported measurements were obtained from ChEMBL document CHEMBL4368873.

For each of the compounds below, state its Activity.
# Test system: K562
# method: Cell cycle arrest in human K562 cells assessed as accumulation at G2/M phase at IC50 after 72 hrs by propidium iodide staining based flow cytometry (reference value: 24.13%)
# Assay type: functional
Form entry: value (%) — number only.

Enquiry: Quick check: Activity of `CO[C@@H]1[C@H]2OC(=O)C[C@H]2O[C@@H]1[C@@H](O)c1ccccc1` ?
Return: 21.21

Enquiry: Also `O=C1C[C@H]2O[C@H]([C@H](O)c3ccccc3)[C@H](O)[C@H]2O1` , if possible.
Return: 24.34

Enquiry: Ok, now `CO[C@@H]1[C@H]2OC(=O)C[C@H]2O[C@@H]1C(=O)c1ccccc1`
Return: 29.53

Enquiry: Do the same for `CO[C@@H]1[C@H]2OC(=O)C[C@H]2O[C@@H]1C(O)(c1ccccc1)c1ccccc1` please
Return: 28.75

Enquiry: Proceed to `CO[C@@H]1[C@H]2OC(=O)C[C@H]2O[C@@H]1[C@H](OC)c1ccccc1`
Return: 28.3

Enquiry: Next compound: `CO[C@@H]1[C@H]2OC(=O)C[C@H]2O[C@@H]1[C@@H](OC)c1ccccc1`
Return: 26.35

Enquiry: Can you handle `CO[C@H](c1ccccc1)[C@H]1O[C@@H]2CC(=O)O[C@@H]2[C@H]1O` next?
Return: 24.89

Enquiry: Entry to check: `CO[C@@H]1[C@H]2OC(=O)C[C@H]2O[C@@H]1[C@H](O)c1ccccc1`
Return: 24.32

Enquiry: Next compound up: `CO[C@@H](c1ccccc1)[C@H]1O[C@@H]2CC(=O)O[C@@H]2[C@H]1O`
Return: 20.9

----------
# System: K562
# method: Cell cycle arrest in human K562 cells assessed as accumulation at G0/G1 phase at IC50 after 72 hrs by propidium iodide staining based flow cytometry (reference value: 47.51%)
# Type: functional
Label class 0 if Activity falls below 50%; label class 1 in every other case.

Enquiry: Reported Activity at or above 50%? `CO[C@@H]1[C@H]2OC(=O)C[C@H]2O[C@@H]1C(=O)c1ccccc1`
Return: class 0

Enquiry: `CO[C@@H]1[C@H]2OC(=O)C[C@H]2O[C@@H]1[C@@H](O)c1ccccc1` , same question.
Return: class 0

Enquiry: Okay, and `CO[C@@H](c1ccccc1)[C@H]1O[C@@H]2CC(=O)O[C@@H]2[C@H]1O` ?
Return: class 1

Enquiry: Now the same for `CO[C@@H]1[C@H]2OC(=O)C[C@H]2O[C@@H]1C(O)(c1ccccc1)c1ccccc1`
Return: class 0

Enquiry: Record: `CO[C@@H]1[C@H]2OC(=O)C[C@H]2O[C@@H]1[C@H](O)c1ccccc1`
Return: class 0

Enquiry: Okay, and `CO[C@@H]1[C@H]2OC(=O)C[C@H]2O[C@@H]1[C@H](OC)c1ccccc1` ?
Return: class 0

Enquiry: For `O=C1C[C@H]2O[C@H]([C@H](O)c3ccccc3)[C@H](O)[C@H]2O1` then?
Return: class 1

Enquiry: What about this compound? `CO[C@H](c1ccccc1)[C@H]1O[C@@H]2CC(=O)O[C@@H]2[C@H]1O`
Return: class 1

----------
I'd be grateful if you could share measured IC50 for these entries.
# Test system: MCF7
# method: Cytotoxicity against human MCF7 cells assessed as inhibition of cell growth after 72 hrs by MTT assay
# Assay type: functional, cell-based
# applied-conditions: MCF7, 72 h
The answer is to be given in µM; state only the numeric part.

Enquiry: Can you look up IC50 on MCF7 for `CO[C@@H]1[C@H]2OC(=O)C[C@H]2O[C@@H]1C(O)(c1ccccc1)c1ccccc1` ?
Return: 11.4

Enquiry: Further, for `CO[C@@H]1[C@H]2OC(=O)C[C@H]2O[C@@H]1[C@H](O)c1ccccc1` ?
Return: 4.04

Enquiry: Same question, `CO[C@@H]1[C@H]2OC(=O)C[C@H]2O[C@@H]1[C@@H](O)c1ccccc1` this time
Return: 12.7

Enquiry: Same question, `CO[C@@H]1[C@H]2OC(=O)C[C@H]2O[C@@H]1C(=O)c1ccccc1` this time
Return: 3.44

----------
# Test system: K562
# method: Up regulation of Bax expression in human K562 cells at IC50 measured after 72 hrs by Western blot analysis
# Type: functional, cell-based
Activity calls are given as the source filed them. The rule behind the calls is not given here.
measure-name: Activity

Enquiry: For the compound `O=C1C[C@H]2O[C@H]([C@H](O)c3ccccc3)[C@H](O)[C@H]2O1` , what Activity is on record?
Return: Active

Enquiry: Also check `CO[C@@H]1[C@H]2OC(=O)C[C@H]2O[C@@H]1C(=O)c1ccccc1`
Return: Active

Enquiry: What do you have for `CO[C@@H]1[C@H]2OC(=O)C[C@H]2O[C@@H]1C(O)(c1ccccc1)c1ccccc1` ?
Return: Active

Enquiry: Another compound to look at: `CO[C@@H]1[C@H]2OC(=O)C[C@H]2O[C@@H]1[C@H](OC)c1ccccc1`
Return: Active

Enquiry: Note, next up: `CO[C@@H]1[C@H]2OC(=O)C[C@H]2O[C@@H]1[C@H](O)c1ccccc1`
Return: Active

Consider the record given below.
Enquiry: Please give the measured Activity for this compound: `CO[C@@H]1[C@H]2OC(=O)C[C@H]2O[C@@H]1[C@@H](OC)c1ccccc1`
Return: Active
